Reported log10 of IC50 against hCRTH2 receptor (Homo sapiens (Human)), gathered from multiple publications, appears below.
Sequence (Q9Y5Y4 whole entry): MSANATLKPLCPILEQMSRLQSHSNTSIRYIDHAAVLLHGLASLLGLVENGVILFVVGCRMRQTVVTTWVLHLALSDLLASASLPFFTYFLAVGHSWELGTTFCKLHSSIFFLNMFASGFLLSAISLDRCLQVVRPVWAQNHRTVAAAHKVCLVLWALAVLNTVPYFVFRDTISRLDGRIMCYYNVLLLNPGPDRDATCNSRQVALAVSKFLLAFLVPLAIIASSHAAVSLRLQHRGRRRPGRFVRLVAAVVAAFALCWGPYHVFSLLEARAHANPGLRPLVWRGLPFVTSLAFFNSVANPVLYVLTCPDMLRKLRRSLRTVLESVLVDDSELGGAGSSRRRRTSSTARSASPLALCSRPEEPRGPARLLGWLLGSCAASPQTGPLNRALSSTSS
Response schema: value (number) is log10 of IC50 in units of nM.

                                   compound   readout_type  data_value
0  CCC(=O)N(Cc1ccc2ccccc2n1)c1cc(F)cc(-c2nnn[nH]2)c1  log10 of IC50        1.81

Query log10 of IC50 on hCRTH2 receptor (Homo sapiens (Human)) for CCOc1ccc(CC(=O)O)cc1-c1ccc(F)c2c1CN(C(=O)CC1CCOc3ccccc31)CC2 (racemic)
1.11

Query log10 of IC50 on hCRTH2 receptor (Homo sapiens (Human)) for CCOc1ccc(CC(=O)O)cc1-c1ccc(F)c2c1CN(C(=O)OCC=C(C)C)CC2
0.94

Query log10 of IC50 on hCRTH2 receptor (Homo sapiens (Human)) for CCC(=O)N(Cc1ccc(OC(F)(F)F)cc1)c1cccc(-c2nnn[nH]2)c1
2.12

Query log10 of IC50 on hCRTH2 receptor (Homo sapiens (Human)) for COc1ccc(CC(=O)O)cc1-c1ccc(F)c2c1CN(C(=O)[C@@H]1C[C@H]1c1ccc(Cl)cc1Cl)CC2 (racemic)
1.00

Query log10 of IC50 on hCRTH2 receptor (Homo sapiens (Human)) for CCOc1cc(CC(=O)O)ccc1-c1ccc(F)c2c1CN(C(=O)NCc1ccccc1F)CC2
0.58

Query log10 of IC50 on hCRTH2 receptor (Homo sapiens (Human)) for COc1ccc(CC(=O)O)cc1-c1ccc(F)c2c1CN(C(=O)/C=C/c1cccnc1)CC2
1.76

Query log10 of IC50 on hCRTH2 receptor (Homo sapiens (Human)) for CCOc1ccc(CC(=O)O)cc1-c1ccc(F)c2c1CN(C(=O)CC(C)c1cccc(F)c1)CC2 (racemic)
0.84

Query log10 of IC50 on hCRTH2 receptor (Homo sapiens (Human)) for O=C(O)COc1ccc(Cl)c(-c2ccc(C(F)(F)F)c3c2CN(C(=O)OCc2ccccc2)CC3)c1
2.32

Query log10 of IC50 on hCRTH2 receptor (Homo sapiens (Human)) for CN(c1ccc2c(c1)c1c(n2CC(=O)O)CCCCC1)S(=O)(=O)c1ccc(O)cc1
0.56

Query log10 of IC50 on hCRTH2 receptor (Homo sapiens (Human)) for CCOc1ccc(CC(=O)O)cc1-c1ccc(F)c2c1CN(C(=O)/C=C/c1cnn(C)c1)CC2
0.76

Query log10 of IC50 on hCRTH2 receptor (Homo sapiens (Human)) for CCC(=O)N(Cc1cccc([S+]([O-])C(F)(F)F)c1)c1cc(F)cc(-c2nnn[nH]2)c1 (stereo not shown)
1.28

Query log10 of IC50 on hCRTH2 receptor (Homo sapiens (Human)) for COc1ccc(CC(=O)O)cc1-c1ccc(F)c2c1CN(C(=O)CC1(c3ccc(F)cc3)CCC1)CC2
2.62

Query log10 of IC50 on hCRTH2 receptor (Homo sapiens (Human)) for CCOc1cc(CC(=O)O)ccc1-c1ccc(F)c2c1CN(C(=O)OCCC(C)C)CC2
1.69

Query log10 of IC50 on hCRTH2 receptor (Homo sapiens (Human)) for CC(=O)Nc1nc2c(s1)C(c1cc(Cl)ccc1OCC(=O)O)N(C(=O)OCc1ccccc1)CC2 (racemic)
2.93

Query log10 of IC50 on hCRTH2 receptor (Homo sapiens (Human)) for CS(=O)(=O)c1ccc(CC(=O)O)cc1-c1ccc(F)c2c1CN(C(=O)OCc1ccccc1)CC2
1.21

Query log10 of IC50 on hCRTH2 receptor (Homo sapiens (Human)) for Cc1cc2cc(N(C)S(=O)(=O)c3ccc(F)cc3)ccc2n1CC(=O)O
1.93

Query log10 of IC50 on hCRTH2 receptor (Homo sapiens (Human)) for CCOc1ccc(CC(=O)O)cc1-c1ccc(F)c2c1CN(C(=O)O[C@@H](C)c1ccccc1)CC2
0.74

Query log10 of IC50 on hCRTH2 receptor (Homo sapiens (Human)) for CCC(=O)N(Cc1ccc(-c2c(C)noc2C)cc1)c1cccc(-c2nnn[nH]2)c1
2.26

Query log10 of IC50 on hCRTH2 receptor (Homo sapiens (Human)) for CC(C)(C)CCOC(=O)N1CCc2ncsc2[C@H]1c1cc(Cl)ccc1OCC(=O)O
0.11
